All values here come from paper PMC2775811.

Entries below carry reported IC50 on UniProt:P0DMV8.
Record the value in µM, omitting the unit from your answer.

Example entries begin here.
>  <molecule>
CN(C)c1ccc2nc3ccc(=[N+](C)C)cc-3sc2c1 [MB, methylene blue]

>  <system-name>
UniProt:P0DMV8

>  <outcome-measure>
IC50

>  <measured-value>
83

$$$$
>  <molecule>
CNc1ccc2nc3ccc(N)cc3[s+]c2c1 [AC, azure C]

>  <system-name>
UniProt:P0DMV8

>  <outcome-measure>
IC50

>  <measured-value>
11

$$$$

Note: attention shifts to another entry.
Report measured IC50 on UniProt:P0DMV8; entry: O=c1c(O)c(-c2cc(O)c(O)c(O)c2)oc2cc(O)cc(O)c12 [MY, myricetin]
12
